So I've got a bunch of binders here, and I need their koff values.
# MEASURED TARGET: T1, cynomolgus SIRP-α D1 domain (cyno1) (cynomolgus monkey, UniProt Q5TFQ8 30-148 (human entry), limits assumed)
# T1 chain: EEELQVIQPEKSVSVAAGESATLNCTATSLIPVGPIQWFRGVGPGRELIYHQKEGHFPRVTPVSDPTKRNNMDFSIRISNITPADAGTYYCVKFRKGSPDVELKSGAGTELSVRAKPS
# TEST: SPR, Langmuir fit

Check out these entries, answers already filled in.
Input line: Provide only the value of recorded koff for S198 (scFv, V domains shown) VH: DVQLVESGGGVVRPGESLRLSCAASGFSFSSHAMNWVRQAPGEGLEWVSRINSGGGGTDYAESVKGRFTISRDNSENTLYLQMNSLRAEDTAVYYCAKQYDWNGFFDYWGLGALVTVSS VL: ETVLTQSPATLSVSPGERATLSCRASQTVGSKLAWHQQKPGQAPRLLIYDATNRATGIPDRFSGSGSGTDFTLTISSLQTEDSAVYYCQQYYYWPPYRFGGGTKVEIK
Output line: 8.34e-05 s⁻¹

Input line: Provide only the value of recorded koff for S69 (scFv, V domains shown, also called clone 69) VH: DLQLVESGGGVVRPGESLRLSCAASGFTFSSYAMSWVRQAPGKGLEWLAGISAGGSDTYYIDSVKGRFTISRDNSKNSLYLQMNSLTAEDTAVYYCARETWNHLFDYWGLGTLVTVSS VL: ALTQPASVSANPGETVKIICSGGDYYSTYYGWYQQKSPGSAPVTVIHSDDKRPSDIPSRFSGSASGSAATLTITGVRVEDEAVYFCGAYDGRTYINTFGAGTTLTVL
Output line: 0.000255 s⁻¹

Each binder below has a reported value. Please supply its koff.
1. S29 (scFv, V domains shown, also called clone 29) VH: DVQLVESGGGVVRPGESLRLSCAVSGFRFSSYAMSWVRQAPGKGLEWVSGISSDSDAYYVDSVKGRFTISRDNSKNTLYLQVNSLTAEDTAVYYCARETWNHLFDYWGLGTMVTVSS VL: ALTQPASVSANLGETVKITCSGGDSSSHYYGWFQQKSPGSAPVTLIYSDDERPSDIPSRFSGSASGSTATLTITGVRVEDEAIYFCGAYDGSTYTNTFGAGTTLTVL
2. S27 (scFv, V domains shown, also called clone 27; scFv-Fc form of AB27) VH: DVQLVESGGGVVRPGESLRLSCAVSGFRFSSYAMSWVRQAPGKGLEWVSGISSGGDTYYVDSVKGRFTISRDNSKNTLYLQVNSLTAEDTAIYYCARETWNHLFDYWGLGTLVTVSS VL: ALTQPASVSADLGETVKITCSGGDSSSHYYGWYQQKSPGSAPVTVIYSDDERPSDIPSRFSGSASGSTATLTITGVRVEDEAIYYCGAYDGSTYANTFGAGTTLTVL
3. S218 (scFv, V domains shown, scFv-Fc format (VL-linker-VH on human IgG1 Fc)) VH: DVQLVESGGGVVRPGESLTLSCTASGFTFTSSTMNWVRQAPGEGLDWVSSISTSGVITYYADSVKGRATISRDNSKNTLYLRLFSLRADDTAIYYCATDTFDHWGPGTLVTVSS VL: ALTQPASVSANPGETVKITCFGSSGNYGWFQQKSPGSAPVTVIHYNNKRPSDIPSRFSGSKSGSTGTLTITGVRAEDEAVYFCGAWETGSATFGAGTTLTVL

Output line:
0.000387 s⁻¹
0.000138 s⁻¹
2.49e-05 s⁻¹
